// reported Absorbance at 450 nm per item
Biological target: T1, hTIM3-Fc murine BC loop (human, BC loop replaced by mouse TIM-3)
T1 construct: Whole construct: chimeric ECD, linker and human IgG1 Fc; also called hTIM3-Fc BC loop chimera
Assay: ELISA, construct coated on plate
Respond numerically; units are A450 and should not be typed.

* mAb48 (antibody, V domains shown, Mouse hybridoma antibody) VH: QIQLQQSGPELVTPGTSVKISCKASGYTFTDYYINWVKQRPGQGLEWIGWIYPGSGNTKYNEKFKGKATLTVDTSSSIAYMHLSSLTSEDSAVYFCAGDRFDYWGQGTTLTVSS VL: QIVLTQSPAIMSASPGEKVTLTCSASSGVSSSYLYWYQQKPGSSPKLWIYSTSNLASGVPARFSGSGSGTSYSLTISNMETEDAASYFCHQWSNSPYTFGGGTKLEIK | 1.3
* mAb22 (antibody, V domains shown, Mouse hybridoma antibody) VH: EVQLVESGGDLVKPGGSLKLSCAASGFTFSNHGMSWVRQTPDKRLEWVATISSGGSNTYFPDSVKGRFTISRDNVKNSLYLQMSSLKSEDTAMYYCARHGTSMIKEWFAYWGQGTLVTVSA VL: DIVMTQSPVTLSVTPGDRVSLSCRASQSIGDYLHWYQQKSHESPRLLIKYASQSISGIPSRFSGSGSGSDFTLNINSVEPEDVGVYYCQHSHSFPPTFGGGTRLEIK | 2.06

Query block: Fill in: Absorbance at 450 nm of mAb91 (antibody, V domains shown, Mouse hybridoma antibody) VH: DVQFQESGPGLVKPSQSLSLTCSVTGYSITSGYYWNWIRQFPGNKLEWMGYISYDGSNNYNPSLKNRISITRDTSKNQFFLKLNSVTTEDTATYYCGRDGPYYYGSSYGYFDVWGTGTTVTVSS VL: DIVMTQAESSVPVTPGESVSISCRSSKSLLHSNGNTYLYWFLQRPGQSPQLLIHRMSNLASGVPDRFSGSGSGTAFTLRISRVEAEDMGVYYCMQHLEYPCTFGGGTKLEIK is ___
Result block: 1.44

Query block: Fill in: Absorbance at 450 nm of mAb58 (antibody, V domains shown) VH: QIQLVQSGPELKKPGETVKISCKASGYTFTTYGMSWVKQAPGKGLKLMGWINTYSGAPTYADDFKGRFAFSLETSASAAYLQINNLKNEDTATYFCARKPPHYYVNSFDYWGQGTTLTVSS VL: DIVMTQSPATLSVTPGDRVSLSCRASQSISDYLHWYQQKSHESPRLLIKYASQSISGIPSRFSGSGSGSDFTLSINSVEPEDVGVYYCQNGHSFPYTFGGGTKLEIK is ___
Result block: 1.83

The origin of these recorded values is patent US20160200815A1.
